Record form. Attribute: IC50. Fill in for each entry.
target: recombinant wildtype and mutated PPO (Amaranthus PPO2: PPX2L_WC SEQ ID NO 2, PPX2L_AC SEQ ID NO 4, dG210 SEQ ID NO 6 & 8) (Amaranthus tuberculatus, UniProt Q0NZW9, D133A/F420M/R128M); experiment: biochemical; settings: IC50 (M)
Sequence (Q0NZW9 1-534 R128M/D133A/F420M): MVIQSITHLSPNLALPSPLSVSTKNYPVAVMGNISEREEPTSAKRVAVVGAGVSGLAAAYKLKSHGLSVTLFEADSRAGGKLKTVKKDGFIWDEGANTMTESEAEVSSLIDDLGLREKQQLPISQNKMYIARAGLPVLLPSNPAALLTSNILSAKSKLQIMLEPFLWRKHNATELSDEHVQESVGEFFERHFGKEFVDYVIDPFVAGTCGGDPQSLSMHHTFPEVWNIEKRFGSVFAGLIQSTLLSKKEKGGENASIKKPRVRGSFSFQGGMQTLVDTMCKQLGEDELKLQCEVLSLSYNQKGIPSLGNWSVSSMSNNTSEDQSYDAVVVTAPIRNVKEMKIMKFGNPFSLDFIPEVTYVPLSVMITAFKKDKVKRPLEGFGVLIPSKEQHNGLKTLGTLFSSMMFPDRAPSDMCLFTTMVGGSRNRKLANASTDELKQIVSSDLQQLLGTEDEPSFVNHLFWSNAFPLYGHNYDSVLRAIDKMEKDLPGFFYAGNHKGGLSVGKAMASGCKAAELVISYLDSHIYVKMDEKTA
Give bare numbers, in M.

Compound	Measurement
C=CCOC(=O)C(C)(C)OC(=O)c1cc(-n2c(=O)cc(C(F)(F)F)n(C)c2=O)ccc1Cl [BUTAFENACIL]	4.38e-08

Attention now turns to another entry.
-- ask Name the reported IC50 value associated with the compound COC(=O)C(OC)Oc1ccccc1Oc1cc(-n2c(=O)cc(C(F)(F)F)n(C)c2=O)c(F)cc1Cl (stereo not shown)
-- reply 1.62e-08
